Molecular target: T1, human GPCR135 (human, UniProt Q9NSD7 1-469)
T1 construct: whole, on cells; also called SALPR
T1 sequence (looked up): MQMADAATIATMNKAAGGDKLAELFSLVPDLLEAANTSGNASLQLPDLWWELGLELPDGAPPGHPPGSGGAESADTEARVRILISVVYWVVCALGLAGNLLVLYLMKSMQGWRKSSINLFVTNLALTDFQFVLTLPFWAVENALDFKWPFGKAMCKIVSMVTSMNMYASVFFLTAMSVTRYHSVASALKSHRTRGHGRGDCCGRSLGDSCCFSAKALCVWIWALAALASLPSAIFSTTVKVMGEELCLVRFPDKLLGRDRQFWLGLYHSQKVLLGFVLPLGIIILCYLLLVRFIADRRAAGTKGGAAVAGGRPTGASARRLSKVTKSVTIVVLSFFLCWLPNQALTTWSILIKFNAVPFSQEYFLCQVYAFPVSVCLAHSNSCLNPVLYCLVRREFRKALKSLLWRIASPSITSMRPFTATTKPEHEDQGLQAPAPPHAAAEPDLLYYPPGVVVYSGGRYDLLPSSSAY
Assay: radioligand competition, 50 pM 125I-R3/I5 tracer, COS-7 cells transiently expressing human GPCR135
Readout Kind: IC50 (nM)
Numbers only, in nM.

• R3(BΔ24-27) (peptide) chain 1: RAAPYGVRLCGREFIRAVIFTCG chain 2: DVLAGLSSSCCKWGCSKSEISSLC = 13.5

Could you report IC50 for every entry in the following list?
1. R3(BΔ26-27) (peptide) chain 1: RAAPYGVRLCGREFIRAVIFTCGGS chain 2: DVLAGLSSSCCKWGCSKSEISSLC
2. R3(BΔ23-27)R/I5 (N-terminal pyro-Glu ("<E"), Chimeric two-chain peptide; also called R3(Δ23-27)R/I5; R3(ΔB23-27)R/I5) chain 1: RAAPYGVRLCGREFIRAVIFTCR chain 2: EDLQTLCCTDGCSMTDLSALC
3. R3(BΔ25-27) (peptide) chain 1: RAAPYGVRLCGREFIRAVIFTCGG chain 2: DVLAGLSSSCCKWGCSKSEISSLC
4. R3(BΔ23-27)R (probably a misprint) chain 1: RAAPYGVRLCGREFIRAVIFTCR chain 2: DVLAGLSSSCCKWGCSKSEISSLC

1: 11.5; 2: 0.67; 3: 9.5; 4: 0.95
